Recorded values, source patent US20090011025A1.

Assay: Gelation capability of gelators, stable-to-inversion of container method (minimum gelation concentration, gel stability and clarity)
Type: physicochemical
Design: key: —: no gel formed
Conditions: H2O/0.9% NaCl (aq.)
assayMetric: minimum gelation concentration (MGC)

Some entries whose results are on file:
>>> result("O=C(CCCC[C@@H]1SC[C@@H]2NC(=O)N[C@@H]21)N[C@@H](Cc1c[nH]c2ccccc12)C(=O)O")
"—"
>>> result("O=C(CCCC[C@@H]1SC[C@@H]2NC(=O)N[C@@H]21)N[C@@H](Cc1ccc(O)cc1)C(=O)O")
"—"
>>> result("CCCC[C@H](NC(=O)CCCC[C@@H]1SC[C@@H]2NC(=O)N[C@@H]21)C(=O)O")
"0.3 wt %"
>>> result("CCCCCCC(NC(=O)CCCC[C@@H]1SC[C@@H]2NC(=O)N[C@@H]21)C(=O)O (mixture of isomers)")
"0.6 wt %"
>>> result("O=C(CCCC[C@@H]1SC[C@@H]2NC(=O)N[C@@H]21)N[C@@H](Cc1ccccc1)C(=O)O")
"2.0 wt %"

[ask] // returns reported minimum gelation concentration (MGC) for input `CC(C)C[C@H](NC(=O)CCCC[C@@H]1SC[C@@H]2NC(=O)N[C@@H]21)C(=O)O`
[reply] 1.6 wt %

[ask] Same question, CCCCCC(NC(=O)CCCC[C@@H]1SC[C@@H]2NC(=O)N[C@@H]21)C(=O)O (stereo partly drawn) [Gelator 10, N-biotinyl-D,L-2-aminoenantic acid] this time
[reply] 0.8 wt %

[ask] Same question, `CSCC[C@H](NC(=O)CCCC[C@@H]1SC[C@@H]2NC(=O)N[C@@H]21)C(=O)O` this time
[reply] 1.8 wt %

[ask] Same question, `CCC[C@H](NC(=O)CCCC[C@@H]1SC[C@@H]2NC(=O)N[C@@H]21)C(=O)O` this time
[reply] 1.2 wt %

[ask] Same question, `CC[C@H](C)[C@H](NC(=O)CCCC[C@@H]1SC[C@@H]2NC(=O)N[C@@H]21)C(=O)O` this time
[reply] 1.2 wt %

[ask] Same question, `CC(C)[C@H](NC(=O)CCCC[C@@H]1SC[C@@H]2NC(=O)N[C@@H]21)C(=O)O` this time
[reply] 1.4 wt %

* * *

Test: Textures of the hydrogels/xerogels by scanning electron microscopy (SEM)
Format: physicochemical
Conditions: gel at MGC in distilled water, freeze-dried
assayMetric: structure type of hydrogel (xerogel SEM image)

Some entries whose results are on file:
>>> result("CC(C)C[C@H](NC(=O)CCCC[C@@H]1SC[C@@H]2NC(=O)N[C@@H]21)C(=O)O")
"fibrous structures"
>>> result("O=C(CCCC[C@@H]1SC[C@@H]2NC(=O)N[C@@H]21)N[C@@H](Cc1ccccc1)C(=O)O")
"fibrous structures"
>>> result("CC(C)[C@H](NC(=O)CCCC[C@@H]1SC[C@@H]2NC(=O)N[C@@H]21)C(=O)O")
"lamellar structures"
>>> result("CCC[C@H](NC(=O)CCCC[C@@H]1SC[C@@H]2NC(=O)N[C@@H]21)C(=O)O")
"lamellar structures"

[ask] // returns reported structure type of hydrogel (xerogel SEM image) for input `CC[C@H](C)[C@H](NC(=O)CCCC[C@@H]1SC[C@@H]2NC(=O)N[C@@H]21)C(=O)O`
[reply] lamellar structures
